# tested on: monkey NPR1 (Macaca fascicularis)
# assay explanation: Cellular cGMP production assay, monkey NPR1 expressing CHO-K1 cells (CisBio HTRF)
# Type: cell-based
# condition label: maximum cGMP production as percentage of the maximum cGMP produced with ANP, monkey NPR1 CHO-K1 cells
# Experimental: Cellular cGMP is a major second messenger that mediates cell activities and is synthesized by activated NPR1 triggered by binding of the natural ligand ANP. […] The assay was performed according to manufacturer's instructions with minor deviations. […] The readout was performed using an Envision plate reader (PerkinElmer) with an excitation wavelength of 317 nm and an emission wavelength of 665 nm. cGMP concentration (Delta F [° %]) was calculated according to the following formulae: […]
I'd be grateful if you could share measured Monkey NPR1 Amax (% of ANP) for these entries.

## Task Record request: Monkey NPR1 Amax (% of ANP) value, item `CC[C@@H](N(C)c1nc2c(c(N[C@@H](CN3CCC[C@H](C)C3)c3cnn(C)c3)n1)C[C@](C)(c1ccccc1)CC2)C12CC(C(=O)O)(C1)C2`
## Result 101.778 % of ANP

## Task Param item: `CC[C@H]([C@H]1CC[C@H](C(=O)O)CC1)N(C)c1nc2c(c(N[C@@H](CN3CCCC3)c3ccccc3)n1)C[C@H](c1ccccc1)CC2`
## Result 96.864 % of ANP

## Task Param item: O=C(O)[C@H]1CC[C@H](C(CC2CC2)Nc2nc3c(c(N[C@@H](CN4CCCC4)c4ccccc4)n2)CC(c2ccccc2)CC3)CC1 (some centres unmarked)
## Result 111.911 % of ANP

## Task Param item: `CC[C@@H](N(C)c1nc2c(c(N[C@@H](CN3C4CCCC3CC4)c3cnn(CC)c3)n1)C[C@H](c1cccc(F)c1)CC2)C12CC(C(=O)O)(C1)C2`
## Result 101.138 % of ANP

Okay, next one:
## Task Record request: Monkey NPR1 Amax (% of ANP) value, item `CC[C@H]([C@H]1CC[C@H](C(=O)O)CC1)N(C)c1nc2c(c(N[C@H](c3cnn(C)c3)C(C)(C)N3CCCCC3)n1)C[C@H](c1ccccc1)CC2`
## Result 102.204 % of ANP

====

# tested on: monkey NPR1 (Macaca fascicularis)
# assay explanation: Cellular cGMP production assay, monkey NPR1 expressing CHO-K1 cells (CisBio HTRF)
# Format: cell-based
# condition label: cGMP production, monkey NPR1 CHO-K1 cells, 30 min at 37° C., 12-point dose-response from 30 μM; read-out: Monkey NPR1 AC50
experimental endpoint: AC50

// known answers, use as guide
## Task Request - read-out AC50 | tested on monkey NPR1 (Macaca fascicularis) | compound `CC[C@H]([C@H]1CC[C@H](C(=O)O)CC1)N(C)c1nc2c(c(N[C@@H](CN3CCCCC3)c3cnn(C)c3)n1)C[C@](C)(c1ccccc1)CC2`
## Result 123 nM

## Task Param item: `CC[C@H]([C@H]1CC[C@H](C(=O)O)CC1)N(C)c1nc2c(c(N[C@@H](CN3CCC(O)CC3)c3cnn(CC)c3)n1)C[C@H](c1ccccc1)CC2`
## Result 802 nM

Okay, next one:
## Task Request - read-out AC50 | tested on monkey NPR1 (Macaca fascicularis) | compound `CC[C@H]([C@H]1CC[C@H](C(=O)O)CC1)N(C)c1nc2c(c(N[C@@H](CN3CCCCC3)c3cnn(C)c3)n1)C[C@H](c1ccccc1)CC2`
## Result 400 nM

====

I'd be grateful if you could share measured Monkey NPR1 Amax (% of ANP) for these entries.
# tested on: monkey NPR1 (Macaca fascicularis, UniProt A0A7N9DBT9)
# Sequence (A0A7N9DBT9 entry or part of it): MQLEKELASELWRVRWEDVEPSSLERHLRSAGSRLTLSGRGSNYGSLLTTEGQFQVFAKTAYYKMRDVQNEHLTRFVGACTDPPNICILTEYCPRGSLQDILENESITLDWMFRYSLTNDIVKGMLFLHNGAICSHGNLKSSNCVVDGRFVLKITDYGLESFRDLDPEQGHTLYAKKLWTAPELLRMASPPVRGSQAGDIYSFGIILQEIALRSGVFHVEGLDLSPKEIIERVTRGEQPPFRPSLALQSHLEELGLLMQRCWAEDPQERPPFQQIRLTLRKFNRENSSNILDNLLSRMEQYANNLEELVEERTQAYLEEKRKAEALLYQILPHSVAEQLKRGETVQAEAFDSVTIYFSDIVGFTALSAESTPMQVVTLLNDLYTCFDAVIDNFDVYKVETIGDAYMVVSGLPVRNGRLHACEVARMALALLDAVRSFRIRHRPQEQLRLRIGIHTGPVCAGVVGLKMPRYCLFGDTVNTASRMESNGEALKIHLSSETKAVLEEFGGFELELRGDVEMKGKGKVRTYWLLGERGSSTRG
# assay explanation: Cellular cGMP production assay, monkey NPR1 expressing CHO-K1 cells (CisBio HTRF)
# Type: cell-based
# condition label: maximum cGMP production as percentage of the maximum cGMP produced with ANP, monkey NPR1 CHO-K1 cells

Quick request: Monkey NPR1 Amax (% of ANP) for each listed item, please.
1. CC[C@@H](N(C)c1nc2c(c(N[C@@H](CN3CCC[C@H](C)C3)c3ccnn3C)n1)C[C@H](c1cccc(F)c1)CC2)C12CC(C(=O)O)(C1)C2 [Compound 155]
2. CC[C@@H](Nc1nc2c(c(N[C@@H](CN3CCCC3)c3ccccc3)n1)CN(c1ccccc1)CC2)[C@H]1CC[C@H](C(=O)O)CC1 [Compound 131]
3. CC[C@@H](Nc1nc2c(c(N[C@@H](CN3CCC(C)CC3)c3cnn(C)c3)n1)C[C@H](c1ccccc1)CC2)[C@H]1CC[C@H](C(=O)O)CC1 [Compound 121]
4. CC[C@H]([C@H]1CC[C@H](C(=O)O)CC1)N(C)c1nc2c(c(N[C@@H](CN3CCCCC3)c3cnn(C)c3)n1)CN(c1cccc(F)c1)CC2 [Compound 157]
5. CC[C@@H](Nc1nc2c(c(N[C@@H](CN3CCCC(F)(F)CC3)c3cnn(CC)c3)n1)C[C@H](c1ccccc1)CC2)[C@H]1CC[C@H](C(=O)O)CC1 [Compound 137]
6. CC[C@H]([C@H]1CC[C@H](C(=O)O)CC1)N(C)c1nc2c(c(N[C@@H](CN3CCC[C@H](C)C3)c3cnn(C)c3)n1)C[C@@H](c1cccc(F)c1)CC2 [Compound 75]

## Result
["95.840 % of ANP", "109.531 % of ANP", "102.117 % of ANP", "105.667 % of ANP", "99.351 % of ANP", "102.588 % of ANP"]

====

# tested on: human NPR1 (Homo sapiens)
# Construct: host or cells: CHO-K1
# Sequence (P16066 33-1061): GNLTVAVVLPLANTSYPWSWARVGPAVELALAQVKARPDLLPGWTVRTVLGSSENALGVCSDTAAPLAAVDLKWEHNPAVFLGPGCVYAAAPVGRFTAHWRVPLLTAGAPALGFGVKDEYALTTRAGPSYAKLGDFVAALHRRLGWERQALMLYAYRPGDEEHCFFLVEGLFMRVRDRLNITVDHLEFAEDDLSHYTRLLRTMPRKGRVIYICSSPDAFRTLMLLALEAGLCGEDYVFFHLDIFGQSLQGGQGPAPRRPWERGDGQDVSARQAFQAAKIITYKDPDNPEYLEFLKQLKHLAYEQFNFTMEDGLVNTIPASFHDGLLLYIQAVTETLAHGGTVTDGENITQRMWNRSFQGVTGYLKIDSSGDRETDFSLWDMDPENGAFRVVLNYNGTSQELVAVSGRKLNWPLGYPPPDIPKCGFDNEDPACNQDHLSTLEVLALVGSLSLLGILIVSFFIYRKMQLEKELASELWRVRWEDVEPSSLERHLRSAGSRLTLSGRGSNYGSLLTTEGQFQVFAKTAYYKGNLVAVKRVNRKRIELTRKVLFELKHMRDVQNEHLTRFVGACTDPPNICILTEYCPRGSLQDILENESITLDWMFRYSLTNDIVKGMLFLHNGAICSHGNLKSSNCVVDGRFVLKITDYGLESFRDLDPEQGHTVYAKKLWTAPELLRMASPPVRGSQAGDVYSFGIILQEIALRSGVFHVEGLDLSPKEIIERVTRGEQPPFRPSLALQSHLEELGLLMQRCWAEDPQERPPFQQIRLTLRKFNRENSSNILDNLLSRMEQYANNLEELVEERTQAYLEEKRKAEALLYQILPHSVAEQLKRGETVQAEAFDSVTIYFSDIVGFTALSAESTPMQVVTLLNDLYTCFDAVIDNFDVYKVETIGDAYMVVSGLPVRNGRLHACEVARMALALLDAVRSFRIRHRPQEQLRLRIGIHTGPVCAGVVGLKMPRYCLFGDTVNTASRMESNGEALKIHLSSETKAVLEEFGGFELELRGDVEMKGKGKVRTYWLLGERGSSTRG
# assay explanation: Cellular cGMP production assay, human NPR1 expressing CHO-K1 cells (CisBio HTRF)
# Type: cell-based
# condition label: cGMP production, 30 min at 37° C., 12-point dose-response from 30 μM
I'd be grateful if you could share measured AC50 for these entries.
Numbers only, in µM.

## Task Record request: AC50 value, item CC[C@H]([C@H]1CC[C@H](C(=O)O)CC1)N(C)c1nc2c(c(N[C@@H](CN3CC4CCC3C4)c3cnn(C)c3)n1)C[C@](C)(c1ccccc1)CC2 (stereo partly drawn) [Compound 68]
## Result 0.234

## Task Param item: CC[C@@H](Nc1nc2c(c(N[C@@H](CN3CCC(OC)CC3)c3cnn(C)c3)n1)C[C@H](c1ccccc1)CC2)[C@H]1CC[C@H](C(=O)O)CC1 [Compound 151]
## Result 1.18

---
## Task Record request: AC50 value, item CC[C@@H](Nc1nc2c(c(N[C@@H](CN3C4CCCC3CC4)c3scnc3C)n1)C[C@H](c1cccc(F)c1)CC2)[C@H]1CC[C@H](C(=O)O)CC1 [Compound 26]
## Result 0.131

====

# tested on: monkey NPR1 (Macaca fascicularis)
# assay explanation: Cellular cGMP production assay, monkey NPR1 expressing CHO-K1 cells (CisBio HTRF)
# Type: cell-based
# condition label: maximum cGMP production as percentage of the maximum cGMP produced with ANP, monkey NPR1 CHO-K1 cells
experimental endpoint: Monkey NPR1 Amax (% of ANP)

// known answers, use as guide
## Task Record request: Monkey NPR1 Amax (% of ANP) value, item CC[C@H]([C@H]1CC[C@H](C(=O)O)CC1)N(C)c1nc2c(c(N[C@@H](CN3CC4CCC3C4)c3cnn(C)c3)n1)C[C@H](c1ccccc1)CC2 (stereo partly drawn)
## Result 95.117 % of ANP

## Task Param item: `CC[C@H]([C@H]1CC[C@H](C(=O)O)CC1)N(C)c1nc2c(c(N[C@@H](CN3CCCC(F)(F)CC3)c3cnn(C)c3)n1)C[C@H](c1ccccc1)CC2`
## Result 156.200 % of ANP

Okay, next one:
## Task Record request: Monkey NPR1 Amax (% of ANP) value, item `CC[C@H]([C@H]1CC[C@H](C(=O)O)CC1)N(C)c1nc2c(c(N[C@@H](CN3C4CCCC3CCC4)c3cnn(CC)c3)n1)C[C@@H](c1cccc(F)c1)CC2`
## Result 106.496 % of ANP

====

# tested on: monkey NPR1 (Macaca fascicularis, UniProt A0A7N9DBT9)
# assay explanation: Cellular cGMP production assay, monkey NPR1 expressing CHO-K1 cells (CisBio HTRF)
# Format: cell-based
I'd be grateful if you could share measured AC50 for these entries.

// known answers, use as guide
## Task Record request: AC50 value, item CC[C@H]([C@H]1CC[C@H](C(=O)O)CC1)N(C)c1nc2c(c(N[C@@H](CN3C4CCCC3CC4)c3cnn(C)c3)n1)C[C@](C)(c1ccccc1)CC2 [Compound 34]
## Result 91 nM

## Task Param item: CC[C@@H](Nc1nc2c(c(N[C@@H](CN3C4CCCC3CCC4)c3cnn(CC)c3)n1)C[C@H](c1cccc(F)c1)CC2)[C@H]1CC[C@H](C(=O)O)CC1 [Compound 17]
## Result 68 nM

Okay, next one:
## Task Record request: AC50 value, item CC[C@H]([C@H]1CC[C@H](C(=O)O)CC1)N(C)c1nc2c(c(N[C@@H](CN3C4CCCC3CCC4)c3cnn(CC)c3)n1)C[C@H](c1ccccc1)CC2 [Compound 92]
## Result 249 nM

Where do these numbers come from? They come from patent US12129246B1.
